# Test system: Enterococcus faecium
# test-name: In vitro antibacterial activity against gram-positive Enterococcus faecium ATCC 8043
# Format: functional
# condition-details: Enterococcus faecium, ATCC 8043; read-out: MIC
Let's look at some compounds and their measured MIC.
Just the number in mg/L, nothing appended.

{"compound": "CN[C@@H]1CN(c2c(F)cn3c(=O)c(C(=O)O)cc(C4CC4)c3c2C)C[C@H]1C (stereo in doubt)", "measurement-units": "mg/L", "MIC": 0.1}
{"compound": "Cc1c(N2CC[C@@H]3CCNC[C@@H]32)c(F)cn2c(=O)c(C(=O)O)cc(C3CC3)c12", "measurement-units": "mg/L", "MIC": 0.2}
{"compound": "Cc1c(N2CCCCC2)c(F)cn2c(=O)c(C(=O)O)cc(C3CC3)c12", "measurement-units": "mg/L", "MIC": 0.39}

// next item, MIC requested
Provide MIC value for the following compound: `Cc1c(N2CC[C@@H]3[C@H](N)[C@@H]3C2)c(F)cn2c(=O)c(C(=O)O)cc(C3CC3)c12`
0.05

====

Let's look at some compounds and their measured ED50.
# Tested on: Streptococcus pneumoniae
# test-name: In vivo efficacy against Streptococcus pneumoniae ATCC 6303 in mouse protection test after s.c. administration.
# Format: functional
# condition-details: Streptococcus pneumoniae, sc; read-out: ED50

// solved cases for ED50 follow
{"molecule-smiles": "Cc1c(N2CCC[C@@H](NC3CC3)C2)c(F)cn2c(=O)c(C(=O)O)cc(C3CC3)c12", "tgt": "Streptococcus pneumoniae", "ED50": "> 16 mg/kg"}
{"molecule-smiles": "Cc1c(N2CC[C@H](NC3CC3)C2)c(F)cn2c(=O)c(C(=O)O)cc(C3CC3)c12", "tgt": "Streptococcus pneumoniae", "ED50": "> 8 mg/kg"}

// next item, ED50 requested
Provide ED50 value for the following compound: `Cc1c(N2C[C@H](C3CC3)[C@@H](N)C2)c(F)cn2c(=O)c(C(=O)O)cc(C3CC3)c12`
> 8 mg/kg

====

Let's look at some compounds and their measured MIC.
# Test system: Burkholderia cepacia
# test-name: In vitro antibacterial activity against gram negative Pseudomonas cepacia 2961
# Format: functional
# condition-details: Burkholderia cepacia; read-out: MIC

{"compound": "Cc1c(N2CC[C@@H](N)C2)c(F)cn2c(=O)c(C(=O)O)cc(C3CC3)c12", "tgt": "Burkholderia cepacia", "readout-kind": "MIC", "recorded-measurement": "0.78 µg/mL"}

Provide MIC value for the following compound: Cc1c(N2CCCC(N)C2)c(F)cn2c(=O)c(C(=O)O)cc(C3CC3)c12 (stereo not given)
0.78 µg/mL

Provide MIC value for the following compound: Cc1c(N2CCC(CN)(C(F)(F)F)C2)c(F)cn2c(=O)c(C(=O)O)cc(C3CC3)c12 (stereo not given)
6.2 µg/mL

Provide MIC value for the following compound: `Cc1c(N2C[C@H](N)[C@H](C3CC3)C2)c(F)cn2c(=O)c(C(=O)O)cc(C3CC3)c12`
1.56 µg/mL

Provide MIC value for the following compound: `Cc1c(N2CC[C@H](NCCF)C2)c(F)cn2c(=O)c(C(=O)O)cc(C3CC3)c12`
3.1 µg/mL

Provide MIC value for the following compound: Cc1c(N2CCC(N(C)C3CC3)C2)c(F)cn2c(=O)c(C(=O)O)cc(C3CC3)c12 (stereo not given)
3.1 µg/mL
